Reported percent blocking values follow for various binders
target: rSARS2-B.1.1.7 S aa16-1211 2x aa mut., C-His (SARS-CoV-2, UniProt P0DTC2 16-1211); test: flow cytometry, blocking of binding to hACE-2 cells
Supply the numeric figure in %, leaving out any unit text.

Record summary for 1035211 (antibody, V domains shown) VH: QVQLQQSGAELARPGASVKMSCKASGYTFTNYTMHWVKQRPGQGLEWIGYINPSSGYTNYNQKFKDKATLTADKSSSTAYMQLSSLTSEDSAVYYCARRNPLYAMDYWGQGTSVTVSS VL: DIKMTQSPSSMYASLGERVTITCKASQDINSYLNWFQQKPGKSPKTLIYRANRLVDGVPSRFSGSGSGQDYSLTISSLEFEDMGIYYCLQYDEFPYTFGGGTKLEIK : reported percent blocking = 76.3
